assay: Microsomal stability; type: in vitro ADME; conditions: rat, liver microsomes, pH 7.4; read-out: Microsome Stability t1/2
Measure: half-life at 1 µM

The value of half-life at 1 µM measured for the compound NCC(F)C[C@@H](N)CNC(=O)c1cc2ccc(-c3ccc(F)cc3)cc2[nH]1 (stereo partly shown) turned out to be > 1 h

====

tested on: P. aeruginosa ATCC 27853 ompH mutants EPIR32, EPIR36, EPIR38; experiment: microbe, parasite or virus in culture; type: cell-based, Pseudomonas aeruginosa; conditions: Pseudomonas aeruginosa, ATCC27853, EPIR38
Measure: MIC (µg/mL)
Quick note: give the figure in µg/mL, leave out the unit.

# Molecule, MIC (µg/mL)
records = [
    ("C[C@@H](O)[C@H]1C(=O)N2C(C(=O)O)=C(S[C@@H]3CN[C@H](C(=O)N(C)C)C3)[C@H](C)[C@H]12", 0.5),
    ("NCC[C@H](O)C(=O)N[C@@H]1C[C@H](N)[C@@H](O[C@H]2O[C@H](CN)[C@@H](O)[C@H](O)[C@H]2O)[C@H](O)[C@H]1O[C@H]1O[C@H](CO)[C@@H](O)[C@H](N)[C@H]1O", 4),
    ("NCC(F)C[C@@H](N)CNC(=O)c1cc2ccc(-c3ccc(F)cc3)cc2[nH]1 (stereo partly shown)", 200),
    ("CC[C@H]1OC(=O)[C@H](C)[C@@H](O[C@H]2C[C@@](C)(OC)[C@@H](O)[C@H](C)O2)[C@H](C)[C@@H](O[C@@H]2O[C@H](C)C[C@H](N(C)C)[C@H]2O)[C@](C)(O)C[C@@H](C)CN(C)[C@H](C)[C@@H](O)[C@]1(C)O", 64),
    ("C[C@H]1COc2c(N3CCN(C)CC3)c(F)cc3c(=O)c(C(=O)O)cn1c23", 0.5),
    ("CN(C)c1cc(NC(=O)CNC(C)(C)C)c(O)c2c1C[C@H]1C[C@H]3[C@H](N(C)C)C(O)=C(C(N)=O)C(=O)[C@@]3(O)C(O)=C1C2=O", 8),
]

Now look at this entry.
The value of MIC measured for the molecule `CC(C)(O/N=C(\C(=O)N[C@@H]1C(=O)N2C(C(=O)[O-])=C(C[n+]3ccccc3)CS[C@H]12)c1csc(N)n1)C(=O)O` turned out to be 2

====

tested on: P. aeruginosa; test: MIC potentiation of antimicrobial agents by EPIs; type: cell-based, Pseudomonas aeruginosa; conditions: TXA09155 at […];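 also: TXA09155 tested at 6.25 µg/mL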
Attribute: MIC of antibiotic + TXA09155
Quick note: give the figure in µg/mL, leave out the unit.

Please review the entries below; each comes with its answer.
# Molecule, Readout Unit, MIC of antibiotic + TXA09155
records = [
    ("C[C@H]1c2cccc(O)c2C(=O)C2=C(O)[C@]3(O)C(=O)C(C(N)=O)=C(O)[C@@H](N(C)C)[C@@H]3[C@@H](O)[C@@H]21 [Doxycycline, doxycycline]", "µg/mL", 1),
    ("C[C@H]1[C@H](NC(=O)/C(=N\\OC(C)(C)C(=O)O)c2csc(N)n2)C(=O)N1S(=O)(=O)O [Aztreonam]", "µg/mL", 2),
]

Now look at this entry.
The recorded MIC of antibiotic + TXA09155 with P. aeruginosa for CNC(C)C1CCC(N)C(OC2C(N)CC(N)C(OC3OCC(C)(O)C(NC)C3O)C2O)O1 (stereo not drawn) [Gentamicin] was 2

meta.source: paper PMC13114161
